assayComment: Dog pharmacokinetics, oral gavage of suspension (0.5% methylcellulose in saline)
Assay type: in vivo
conditionsUsed: dog, plasma; male beagle dogs, 30 mg/kg, oral gavage suspension, mean
Counter-ions that a name gives are not always drawn.
readoutKind: AUC(0-t) (ng·h/mL)

INSERT INTO results (compound, unitabbrev, val) VALUES
  ('CC(C)(OCc1cc(-c2cccc(OC3CCC3)c2)n(-c2ccccc2N2CCC2)n1)C(=O)O [Tris Salt]', 'ng·h/mL', 41300);

###

assayComment: Dog pharmacokinetics, oral gavage of suspension (0.5% methylcellulose in saline)
Type: in vivo
conditionsUsed: dog, plasma; male beagle dogs, 3 mg/kg, oral gavage suspension, mean
Where a name gives a salt, the structure may show the parent alone.
readoutKind: AUC(0-inf) (ng·h/mL)

INSERT INTO results (molecule, val) VALUES
  ('CC(C)(OCc1cc(-c2cccc(OC3CCC3)c2)n(-c2ccccc2N2CCC2)n1)C(=O)O [Tris Salt]', 5200);

###

assayComment: Dog pharmacokinetics, oral gavage of suspension (0.5% methylcellulose in saline)
Format: in vivo
conditionsUsed: dog, plasma; male beagle dogs, 30 mg/kg, oral gavage suspension, mean
Structures can show the parent of a compound that is named as a salt.
readoutKind: AUC(0-inf) (ng·h/mL)

INSERT INTO assay_data (molecule, unitabbrev, val) VALUES
  ('CC(C)(OCc1cc(-c2cccc(OC3CCC3)c2)n(-c2ccccc2N2CCC2)n1)C(=O)O [Tris Salt]', 'ng·h/mL', 56800);
